Property: Drug metabolism; scope: individual compounds
experiment-notes: Drug metabolism in human intestine S9 fraction assessed as psilocin formation at 2.5 uM after 120 mins by LC-MS analysis
Assay type: ADME, subcellular
cond: s9, 2 h
The answer is to be given in µM; state only the numeric part.

> print(dat)
                           structure.string          measure  numeric.readout
1  COc1ccc(C(=O)Oc2cccc3[nH]cc(CCN(C)C)c23)cc1  Drug metabolism            0.114

Prompt: Requested read-out: Drug metabolism. Entry: "CN(C)CCc1c[nH]c2cccc(OC(=O)OCC3CC3)c12"
Response: 0.224

Prompt: // query Drug metabolism value for entry "CC(C)[Si](C(C)C)(C(C)C)n1cc(CCN(C)C)c2c(OC(=O)OCC3CC3)cccc21"
Response: 0.018

Prompt: Recorded Drug metabolism for "COCCOCCOCC(=O)Oc1cccc2[nH]cc(CCN(C)C)c12" , please?
Response: 0

Prompt: Returns the measured Drug metabolism for the input compound. Input: "CN(C)CCc1c[nH]c2cccc(OC(=O)c3ccc(Br)cc3)c12"
Response: 0

Values were extracted from ChEMBL document CHEMBL5335796.
